inhibition at 20 µM listing for selected molecules.
system: porcine aortic smooth muscle cells; experiment: Porcine smooth muscle cell antiproliferation, serum stimulation (3H thymidine incorporation); format: cell-based; settings: Sus scrofa; serum-stimulated; 20 μM
Please respond with the number in % and leave the unit unwritten.

Reference set, count: 3
[
  {
    "molecule": "CCCc1nc2cc(C(=O)c3ccccc3)ccc2n1Cc1ccc(Cl)c(Cl)c1 [Example 8]",
    "inhibition at 20 µM, %": 90
  },
  {
    "molecule": "CCCc1nc2cc(C(=O)c3ccccc3)ccc2[nH]1 [Example 1]",
    "inhibition at 20 µM, %": 39.4
  },
  {
    "molecule": "CCCc1nc2cc(C(=O)c3ccccc3)ccc2n1Cc1ccc(C(=O)O)cc1 [Example 5]",
    "inhibition at 20 µM, %": 41
  }
]

Next:
Under porcine aortic smooth muscle cells: inhibition at 20 µM value of CCCc1nc2ccc(C(=O)c3ccccc3)cc2n1Cc1ccc(C(=O)O)cc1 [Example 4] ? 61.8

----------
test: Cytotoxicity, modified MTT assay, % viable cells; type: cell-based, porcine; parameters: dose or concentration left out as unconfirmed; settings: pig, smooth muscle cells, serum-free medium, 37° C.
Where a name gives a salt, the structure may show the parent alone.
Catalogue of compounds with associated viability at 24 h
API: value field is a number in %; no unit string.

[
  {
    "compound": "CCCc1nc2cc(C(=O)c3ccccc3)ccc2[nH]1",
    "viability at 24 h / %": 80
  },
  {
    "compound": "CCCc1nc2ccc(C(=O)c3ccccc3)cc2n1Cc1ccc(C(=O)O)cc1",
    "viability at 24 h / %": 100
  },
  {
    "compound": "CCCc1nc2cc(C(=O)c3ccccc3)ccc2n1Cc1ccc(Cl)c(Cl)c1",
    "viability at 24 h / %": 100
  },
  {
    "compound": "CCCc1nc2cc(C(=O)c3ccccc3)ccc2n1Cc1ccc(C(=O)O)cc1",
    "viability at 24 h / %": 78
  }
]

Bench note: what viability at 24 h did `O=C(c1ccccc1)c1ccc2[nH]c(-c3ccc(OC(F)(F)F)cc3)nc2c1` show? 100

Given `CCCc1nc2cc(C(=O)c3ccccc3)ccc2n1Cc1ccc(C(=O)OCC)cc1` , state its recorded viability at 24 h. 100

State the recorded viability at 24 h for this entry: `CCCCCCOc1ccc(-c2nc3cc(C(=O)c4ccccc4)ccc3[nH]2)cc1OC` 100

Name the recorded viability at 24 h for `COc1ccc(Cc2nc3cc(C(=O)c4ccccc4)ccc3[nH]2)cc1OC` . 100

Entry `CCCc1nc2ccc(C(=O)c3ccccc3)cc2n1Cc1ccc(C(=O)OCC)cc1` : reported viability at 24 h = ? 100

Form field: reported viability at 24 h of `COc1cc(-c2nc3cc(C(=O)c4ccccc4)ccc3[nH]2)ccc1O` 100

I have this compound here, CCCc1nc2cc(C(O)c3ccccc3)ccc2n1Cc1ccc(C(=O)O)cc1 (centres unmarked) [Example 7, hydrochloride] , and I need its recorded viability at 24 h. 85
